In this section we review reported pKd values for a set of variants.
B1: NELF-E aptamer (parent)
chain: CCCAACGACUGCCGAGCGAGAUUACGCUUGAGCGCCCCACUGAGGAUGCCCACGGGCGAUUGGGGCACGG

- Variants of: B1
- METHOD_SUMMARY: HiTS-RAP
- COND: with NELF-E (Drosophila)
pKd: −log10 of the molar value.
TEST_READOUT: pKd

{"columns": ["MUTATION_CODE", "RECORDED_RESULT"],
 "data": [
  ["U10G G48U", 8.16],
  ["C6G A67G", 8.22],
  ["U28G A39G", 7.95],
  ["C9U U23G", 8.25],
  ["A24G A67G", 8.21],
  ["U10G C49A", 7.69],
  ["A5U A8C", 8.08],
  ["C6G C66U", 8.27],
  ["C13G U28A", 8.37],
  ["C6G A52G", 8.35],
  ["U22G G55C", 8.14],
  ["C12U A39G", 8.17],
  ["U29G G63A", 7.94],
  ["C9G U61A", 7.45],
  ["C12G G26U", 8.25],
  ["G7U G62A", 7.60],
  ["A21G G64A", 8.02],
  ["A4G A31C", 8.38],
  ["G26A U29G", 8.28],
  ["A19C", 8.35],
  ["G18U U22G", 8.16],
  ["A19G G54A", 7.82],
  ["A5G A24G", 8.20],
  ["U10G A31G", 8.17],
  ["A8U U23C", 8.28],
  ["G26A", 8.39],
  ["G14U A39U", 7.49],
  ["C9G G20A", 8.18],
  ["A4G G55U", 8.11],
  ["A8G G44A", 7.41],
  ["C25U U41G", 8.18],
  ["U10A U61A", 7.58],
  ["U10G A15G", 8.33],
  ["U22G U29C", 8.23],
  ["G54C", 7.98],
  ["C6G C57G", 8.18],
  ["G7U U61C", 7.10],
  ["G14A A19U", 8.34],
  ["A4G A21G", 8.22],
  ["A8U G62A", 7.72],
  ["A8G G16U", 8.17],
  ["U29G U61G", 7.84],
  ["A24G G45U", 8.18],
  ["A39U G48A", 7.31],
  ["A8U A15U", 8.15],
  ["C6G A67U", 8.19],
  ["U47G", 8.22],
  ["C6G U10G", 8.32],
  ["A4G G64A", 8.07],
  ["U10C U22G", 8.24],
  ["G20U A21G", 8.29],
  ["G62C", 7.32],
  ["C12G A21U", 8.22],
  ["A59U", 7.14],
  ["A15G U22G", 8.24],
  ["A4U A52G", 8.39],
  ["U10G C25A", 8.39],
  ["C6G A24U", 8.06],
  ["U22G A52G", 8.30],
  ["G14A U22C", 8.29],
  ["U29G C66U", 8.36],
  ["U22G U28C", 8.09]
]}
